Assayed Target: Full-length glucokinase (beta cell isoform) (Homo sapiens)
Construct: Full-length glucokinase (beta cell isoform) was His-tagged at N-terminus; His tag (N); made in house
Sequence (P35557 whole entry, species assumed, canonical isoform): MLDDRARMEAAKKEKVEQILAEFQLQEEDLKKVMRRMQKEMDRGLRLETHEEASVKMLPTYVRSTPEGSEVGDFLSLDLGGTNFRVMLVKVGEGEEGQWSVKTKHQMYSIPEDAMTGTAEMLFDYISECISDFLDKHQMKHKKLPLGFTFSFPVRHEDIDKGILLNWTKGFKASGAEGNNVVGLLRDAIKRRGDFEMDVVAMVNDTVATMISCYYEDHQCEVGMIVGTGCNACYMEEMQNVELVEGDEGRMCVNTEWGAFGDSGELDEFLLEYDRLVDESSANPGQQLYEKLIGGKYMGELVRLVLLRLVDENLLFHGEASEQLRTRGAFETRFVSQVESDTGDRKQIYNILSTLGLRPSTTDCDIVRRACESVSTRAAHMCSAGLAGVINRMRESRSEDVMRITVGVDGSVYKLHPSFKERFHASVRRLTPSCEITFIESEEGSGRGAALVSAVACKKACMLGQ
Protocol Details: Glucokinase biochemical assay (PK/LDH-coupled, NADH depletion at 340 nm): % activation, EC50, % max activation
Protocol Conditions: 5 mM glucose; GK activation; read-out: EC50
Exam item: assign t to entries whose EC50 is below 800 nM and f to entries at or above 800 nM. Note that a value of exactly 800 nM receives f.

1. Cc1ccc(NC(=O)c2cc(Oc3ccc(C(=O)N(C)C)c(F)c3)c3ccsc3c2)nc1	t
2. CN(C)S(=O)(=O)c1ccc(Oc2cc(C(=O)Nc3ccn(C)n3)cc3c2CC(C)(C)O3)cc1	t
3. Cn1ccc(NC(=O)c2cc(Oc3ccc(S(C)(=O)=O)cc3F)c3c(c2)OC(C)(C)C3)n1	t
4. Cc1ccc(NC(=O)c2cc(Oc3ccc(S(C)(=O)=O)cc3)c3oc(C)nc3c2)nc1	f
5. Cc1ccc(NC(=O)c2cc(Oc3ccc(C(=O)N(C)C)cc3)c3oc(C)nc3c2)nc1	t
6. Cn1ccc(NC(=O)c2cc(Oc3cc(F)ccc3S(C)(=O)=O)c3c(c2)OC(C)(CO)C3)n1 (stereo not shown)	f
7. Cn1cc(C(=O)COc2cc(C(=O)Nc3ccn(C)n3)cc3c2CC(C)(C)O3)cn1	f
8. CN(C)C(=O)c1cc2c(Oc3ccc(S(C)(=O)=O)cc3)cc(C(=O)Nc3ccn(C)n3)cc2o1	f
9. CC1(C)Cc2c(Oc3ccc(S(C)(=O)=O)cc3)cc(C(=O)Nc3ccccn3)cc2O1	t
10. CC(C)NC(=O)c1ccc(Oc2cc(C(=O)Nc3ccn(C)n3)cc3c2CC(C)(C)O3)cc1F	t
11. Cc1ccc(NC(=O)c2cc(Oc3cc(F)ccc3S(C)(=O)=O)c3c(c2)OC(C)(CO)C3)nc1 (stereo not shown)	f
12. COC(C)CCOc1cc(C(=O)Nc2ccn(C)n2)cc2c1CC(C)(C)O2 (stereo not shown)	f
13. CCNC(=O)c1ccc(Oc2cc(C(=O)Nc3ccn(C)n3)cc3c2CC(C)(C)O3)cc1F	t
14. Cn1ccc(NC(=O)c2cc(OCc3ccccc3)c3c(c2)OC(C(F)F)C3)n1 (stereo not shown)	f
15. COCC1Cc2c(Oc3ccc(C(=O)N4CCC4)cc3)cc(C(=O)Nc3ccn(C)n3)cc2O1 (single isomer, unassigned; (+)) [Example 210]	f
16. Cn1ccc(NC(=O)c2cc(Oc3ccc(C(=O)N4CC(F)(F)C4)cc3F)c3c(c2)OC(C)(C)C3)n1	t
